- target_under_test: UniProt:Q92633
- Sequence (Q92633 whole entry): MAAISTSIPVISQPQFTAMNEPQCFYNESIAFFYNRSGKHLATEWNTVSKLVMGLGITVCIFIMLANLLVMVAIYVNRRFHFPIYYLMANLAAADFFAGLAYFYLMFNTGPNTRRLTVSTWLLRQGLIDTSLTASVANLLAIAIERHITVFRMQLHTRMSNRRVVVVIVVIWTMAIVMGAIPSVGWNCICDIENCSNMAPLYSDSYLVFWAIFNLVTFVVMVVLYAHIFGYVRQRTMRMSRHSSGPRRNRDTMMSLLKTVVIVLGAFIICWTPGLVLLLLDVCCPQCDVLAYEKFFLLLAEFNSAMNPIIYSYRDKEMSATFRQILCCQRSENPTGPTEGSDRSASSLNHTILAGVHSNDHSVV
- assay_method_text: In vitro functional assay of lysophosphatidic acid receptor 1 activity (calcium flux)
- Type: cell-based
- test_conditions: B103 cells stably expressing human LPAR1; calcium flux (Fluo-4 NW) after lysophosphatidic acid (18:1) at EC80; 100 pM to 10 μM; read-out: LPAR1 IC50
pIC50: −log10 of the molar value.
parameter_measured: pIC50

Which pIC50 value belongs to `Cc1ccc(NC(=O)N(c2ccccc2C(C)C)[C@H]2CC[C@H](O)CC2)c(OC(F)F)n1` ?
6.00 to 7.00

What do we get for CC(C)c1ccccc1N(C(=O)Nc1ncc(Br)cc1OC(F)F)C1CC(CC(=O)O)C1 (stereo not shown) ?
7.00 to 8.00

What do we get for `COc1ccc(NC(=O)N(c2ccccc2C(C)C)[C@H]2CC[C@H](C(=O)NO)CC2)c(OC(F)F)n1` ?
7.00 to 8.00

What do we get for `Cc1ccc(NC(=O)N(c2ccccc2C(C)C)[C@H]2CC[C@](C)(C(=O)O)CC2)c(OC(F)F)n1` ?
> 8.00

All figures here come from patent US20250034110A1.
